Test system: NCI-H226 lung
Assay: NCI-60 one-dose screen, 48 h (100 = growth as untreated, 0 = no growth, -100 = all killed)
Settings: 10 µM unless noted
The panel holds about 83,000 compounds, 20% with a hit somewhere; the sample as a whole holds those more often.
measurement_kind: growth (%)
Provide the reading as a plain figure in %.

Worked cases, growth given:
molecule: CCOC(=O)c1c(NC(=O)c2ccc(OC)cc2)sc2c(CN(C)C)c(O)ccc12
measured_value: 101
//
molecule: CC[C@H](CC[C@@H](C)[C@H]1CC[C@H]2[C@@H]3CC[C@@H]4CC(=O)/C(=C\c5ccncc5)C[C@]4(C)[C@H]3CC[C@]12C)C(C)C
measured_value: 103
//
molecule: O=C(N=Nc1c(O)[nH]c2ccccc12)Nc1ccc(Cl)cc1
measured_value: 95.5
//
molecule: COc1cc(C2Cc3ncccc3-c3[nH]c(=O)c4cccnc4c32)cc(OC)c1OC (centres undefined)
measured_value: 62.8
//
molecule: COc1cc(-c2nc3occn3c2-c2ccnc(NCCCNS(=O)(=O)c3ccccc3)n2)ccc1F
measured_value: 18.4
//
molecule: O=C(Nc1cccc(NC(=O)C2CCCCC2)c1)c1ccccn1
measured_value: 106
//
molecule: N#Cc1c(-c2cccc([N+](=O)[O-])c2)cc(-c2ccc(Nc3nc(Nc4ccc(F)cc4)nc(Nc4ccc(F)cc4)n3)cc2)nc1N
measured_value: 123
//
molecule: O=[N+]([O-])/C(=C\c1ccco1)c1ccccc1Cl
measured_value: 90.3

Now consider a different molecule.
Query: growth; subject: C/C(C=O)=C\c1ccc2c(c1)OCO2
Response: 85.2
